// provenance: paper PMC10261210

ASSAY_OVERVIEW: plasma pharmacokinetics (LC–MS/MS, noncompartmental analysis)
Assay type: in vivo, human
RECORDED_CONDITIONS: human, plasma, po, 400 mg, 400 mg QW oral, cycle 1 day 22, plasma, n 3; read-out: Cmax, geometric mean (%CV)
READOUT_LABEL: Cmax (ng/mL)
Answer format: numeric, ng/mL implied, no suffix.

Give its Cmax value. Item: C[C@@H](NC(=O)c1ncnc(N)c1Cl)c1ncc(C(=O)Nc2cc(C(F)(F)F)c(Cl)cn2)s1
3140

* * *

ASSAY_OVERVIEW: plasma pharmacokinetics (LC–MS/MS, noncompartmental analysis)
Assay type: in vivo, human
RECORDED_CONDITIONS: human, plasma, po, 600 mg, 600 mg QW oral, cycle 1 day 22, plasma, n 20; read-out: Cmax, geometric mean (%CV)
READOUT_LABEL: Cmax (ng/mL)
Answer format: numeric, ng/mL implied, no suffix.

Give its Cmax value. Item: C[C@@H](NC(=O)c1ncnc(N)c1Cl)c1ncc(C(=O)Nc2cc(C(F)(F)F)c(Cl)cn2)s1
5650

* * *

ASSAY_OVERVIEW: plasma pharmacokinetics (LC–MS/MS, noncompartmental analysis)
Assay type: in vivo, human
RECORDED_CONDITIONS: human, plasma, po, 40 mg, 40 mg Q2D oral, cycle 1 day 21, plasma, n 2; read-out: AUC48, geometric mean (%CV)
Protocol: In addition, for patients on Q2D schedules, predose or trough samples were collected on days 9 and 15 (Q2D dosing) or days 8 and 15 (QW dosing) to evaluate time to steady state. […] Terminal half-life was calculated based on the equation: t1/2 = ln2/kel (kel = elimination rate constant determined by linear regression analysis of selected time points in the apparent terminal phase of the log plasma concentration versus time curve).
READOUT_LABEL: AUC (ng·h/mL)
Answer format: numeric, ng·h/mL implied, no suffix.

Give its AUC value. Item: C[C@@H](NC(=O)c1ncnc(N)c1Cl)c1ncc(C(=O)Nc2cc(C(F)(F)F)c(Cl)cn2)s1
20900

* * *

ASSAY_OVERVIEW: plasma pharmacokinetics (LC–MS/MS, noncompartmental analysis)
Assay type: in vivo, human
RECORDED_CONDITIONS: human, plasma, po, 800 mg, 800 mg QW oral, cycle 1 day 22, plasma, n 3; read-out: t1/2z, mean (range) (converted)
READOUT_LABEL: half-life (h)
Answer format: numeric, h implied, no suffix.

Give its half-life value. Item: C[C@@H](NC(=O)c1ncnc(N)c1Cl)c1ncc(C(=O)Nc2cc(C(F)(F)F)c(Cl)cn2)s1
68.1

* * *

ASSAY_OVERVIEW: plasma pharmacokinetics (LC–MS/MS, noncompartmental analysis)
Assay type: in vivo, human
RECORDED_CONDITIONS: human, plasma, po, 800 mg, 800 mg QW oral, cycle 1 day 22, plasma, n 3; read-out: Tmax, median (min, max)
READOUT_LABEL: Tmax (h)
Answer format: numeric, h implied, no suffix.

Give its Tmax value. Item: C[C@@H](NC(=O)c1ncnc(N)c1Cl)c1ncc(C(=O)Nc2cc(C(F)(F)F)c(Cl)cn2)s1
4

* * *

ASSAY_OVERVIEW: plasma pharmacokinetics (LC–MS/MS, noncompartmental analysis)
Assay type: in vivo, human
RECORDED_CONDITIONS: human, plasma, po, 600 mg, 600 mg QW oral, cycle 1 day 22, plasma, n 20; read-out: t1/2z, mean (range) (converted)
READOUT_LABEL: half-life

Give its half-life value. Item: C[C@@H](NC(=O)c1ncnc(N)c1Cl)c1ncc(C(=O)Nc2cc(C(F)(F)F)c(Cl)cn2)s1 [tovorafenib]
~2.92 days
